The reported measurements were obtained from ChEMBL document CHEMBL3885881.

Organism: Rattus norvegicus
Experiment: DrugMatrix - Regimen: Daily Repeat
Format: toxicity, organism-based, Sprague-Dawley
Parameters: regimen Daily Repeat, gender Male, age 6-8 weeks
Conditions: in vivo, po, 0 mg/kg, […], tissue Plasma, route oral GAVAGE, dose level Control, time 14 day, vehicle .5 % CMC
experimental endpoint: BLOOD UREA NITROGEN (mg/dL)
Respond numerically; units are mg/dL and should not be typed.

Look up and report measured BLOOD UREA NITROGEN for this entry: "ClC(Cl)Br" 15.67

Look up and report measured BLOOD UREA NITROGEN for this entry: "ClC(Br)Br" 15.67

Look up and report measured BLOOD UREA NITROGEN for this entry: "COc1ccc(C(=O)Nc2c(Cl)c[n+]([O-])cc2Cl)c2ccc(C(F)(F)F)nc12" 18.67

Look up and report measured BLOOD UREA NITROGEN for this entry: "CCOP(=S)(OCC)Oc1nc(Cl)c(Cl)cc1Cl" 16

====

Could you please report measured ERYTHROCYTE COUNT for the items listed next?
Organism: Rattus norvegicus
Assay: DrugMatrix - Regimen: Daily Repeat
Assay type: toxicity, organism-based, Sprague-Dawley
Design: regimen Daily Repeat, gender Male, age 6-8 weeks
Details: in vivo, po, 0 mg/kg, 120 h, tissue Blood, route oral GAVAGE, dose level Control, time 5 day, vehicle 100 % WATER
Respond numerically; units are x10E6/uL and should not be typed.

Look up and report measured ERYTHROCYTE COUNT for this entry: C[C@H]1c2cccc(O)c2C(=O)C2=C(O)[C@]3(O)C(=O)C(C(N)=O)=C(O)[C@@H](N(C)C)[C@@H]3[C@@H](O)[C@@H]21.O [DOXYCYCLINE] 5.78

Look up and report measured ERYTHROCYTE COUNT for this entry: CN(C)CCCN1c2ccccc2Sc2ccc(Cl)cc21 [CHLORPROMAZINE] 5.35

Look up and report measured ERYTHROCYTE COUNT for this entry: Clc1cccc(Cl)c1N=C1NCCN1 [CLONIDINE] 6

Look up and report measured ERYTHROCYTE COUNT for this entry: CC(O)CO (stereo not given) [PROPYLENE GLYCOL] 5.83

Look up and report measured ERYTHROCYTE COUNT for this entry: C[C@](N)(Cc1ccc(O)c(O)c1)C(=O)O [METHYLDOPA] 5.76

Look up and report measured ERYTHROCYTE COUNT for this entry: C=CCC1(C(C)CCC)C(=O)NC(=O)NC1=O (stereo not given) [SECOBARBITAL] 5.32

Look up and report measured ERYTHROCYTE COUNT for this entry: Cn1cc[nH]c1=S [METHIMAZOLE] 5.49

Look up and report measured ERYTHROCYTE COUNT for this entry: COc1cc2nc(N3CCN(C(=O)C4COc5ccccc5O4)CC3)nc(N)c2cc1OC (stereo not given) [DOXAZOSIN] 5.78

Look up and report measured ERYTHROCYTE COUNT for this entry: Nc1c2c(nc3ccccc13)CCCC2 [TACRINE] 6.02

Look up and report measured ERYTHROCYTE COUNT for this entry: N[C@@H](Cc1ccc(O)c(O)c1)C(=O)O [LEVODOPA] 5.78

Look up and report measured ERYTHROCYTE COUNT for this entry: c1ccc([C@H]2CN3CCSC3=N2)cc1 [LEVAMISOLE] 5.88

Look up and report measured ERYTHROCYTE COUNT for this entry: NCCCCCC(=O)O [AMINOCAPROIC ACID] 5.83

Look up and report measured ERYTHROCYTE COUNT for this entry: CNNCc1ccc(C(=O)NC(C)C)cc1 [PROCARBAZINE] 5.49

Look up and report measured ERYTHROCYTE COUNT for this entry: C[C@H](CS)C(=O)N1CCC[C@H]1C(=O)O [CAPTOPRIL] 5.54

Look up and report measured ERYTHROCYTE COUNT for this entry: Cc1onc(-c2ccccc2Cl)c1C(=O)N[C@@H]1C(=O)N2[C@@H]1SC(C)(C)[C@@H]2C(=O)O [CLOXACILLIN] 5.83
